Read-out: Tissue Factor, F3 (gene 2152)
Assay: BSK_CASM3C_TissueFactor: BioMAP Diversity Plus: CASM3C Assay for Tissue Factor Biomarker Activity (AID 2283052);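 further: cell surface tissue factor protein level read by ELISA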
Details: primary human coronary artery smooth muscle cells; actives raise or lower the signal
Active and inactive are the calls of the source. How the source made its calls: active means hit-call score of the fitted dose curve at least 0.9, where 1 is the maximum; inactive means score below 0.9.
PROPERTY_LABEL: AC50

>>> result("O=C(O)C(Cl)(Cl)Cl")
"inactive"
>>> result("CCCCC(CC)CO[N+](=O)[O-] (configuration not stated)")
"inactive"
>>> result("CC(C)(C)CC(C)(C)c1ccc(O)cc1")
"10 µM (active)"
>>> result("CC(C)CCCCCCOC(=O)c1ccccc1C(=O)OCCCCCCC(C)C")
"0.0332 µM (active)"
>>> result("CC(=O)[O][Hg][c]1ccccc1")
"3.97 µM (active)"

AC50 reported for this compound COP(=S)(OC)Oc1ccc(Sc2ccc(OP(=S)(OC)OC)cc2)cc1 : inactive

AC50 reported for this compound CCSC(C)CC1CC(=O)C(C(CC)=NOC/C=C/Cl)=C(O)C1 (configuration not stated) : inactive

AC50 reported for this compound O=C(O)C(F)(F)C(F)(F)C(F)(F)C(F)(F)C(F)(F)C(F)(F)C(F)(F)C(F)(F)C(F)(F)C(F)(F)F : inactive

AC50 reported for this compound O=[N+]([O-])c1ccc2c3c(cccc13)CC2 : inactive

AC50 reported for this compound O=C(Nc1ccc2[nH]ccc2c1)c1cc2cc(F)ccc2n1Cc1cccc(F)c1 : 20 µM (active)

AC50 reported for this compound CCCCCCCCC(=O)NCc1ccc(O)c(OC)c1 : inactive

AC50 reported for this compound C(=NC1CCCCC1)=NC1CCCCC1 : 25.1 µM (active)

AC50 reported for this compound C[C@@H]1C[C@@H]([C@H](O)CC2CC(=O)NC(=O)C2)C(=O)[C@@H](C)C1 : inactive

AC50 reported for this compound ClC1(Cl)C2(Cl)C3(Cl)C4(Cl)C(Cl)(Cl)C5(Cl)C3(Cl)C1(Cl)C5(Cl)C24Cl (configuration not stated) : inactive

AC50 reported for this compound ClCC(Cl)CCl : inactive

AC50 reported for this compound COP(=S)(OC)Oc1cc(Cl)c(Cl)cc1Cl : inactive

AC50 reported for this compound COC(=O)c1sccc1S(=O)(=O)NC(=O)Nc1nc(C)nc(OC)n1 : inactive

AC50 reported for this compound OCc1ccco1 : inactive

AC50 reported for this compound NC(=S)Nc1ccccc1 : inactive

====

Biological target: Cellular tumor antigen p53 (Homo sapiens) (UniProt P04637)
Sequence (P04637 whole entry, looked up): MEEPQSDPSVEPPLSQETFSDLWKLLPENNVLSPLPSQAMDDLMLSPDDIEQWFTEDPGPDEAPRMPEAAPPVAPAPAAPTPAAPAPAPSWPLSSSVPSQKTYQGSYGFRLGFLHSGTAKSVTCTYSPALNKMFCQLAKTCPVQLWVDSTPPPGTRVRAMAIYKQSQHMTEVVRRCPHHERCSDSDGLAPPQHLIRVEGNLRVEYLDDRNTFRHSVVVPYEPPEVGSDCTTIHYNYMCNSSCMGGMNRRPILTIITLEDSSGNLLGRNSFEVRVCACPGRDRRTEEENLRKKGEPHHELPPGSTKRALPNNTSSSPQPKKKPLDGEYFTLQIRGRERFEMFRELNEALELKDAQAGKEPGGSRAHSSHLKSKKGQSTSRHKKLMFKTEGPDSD
Assay: ATG_p53_CIS: Attagene CIS-FACTORIAL HepG2 Assay for human p53 Transcription Factor (AID 2282994)
Details: HepG2 p53 cis-element reporter, Attagene mRNA; actives raise or lower the signal
Experimental: ATG_CIS is a cell-based, multiplexed-readout assay that uses HepG2, a human liver cell line, with measurements taken at 24 hours after chemical dosing in a 24-well plate.ATG_p53_CIS is one of 52 assay component(s) measured or calculated from the ATG_CIS assay. […] This assay endpoint, ATG_p53_CIS, was analyzed with bidirectional fitting relative to DMSO as the negative control and baseline of activity. […]
The source made the active and inactive calls. The calls were made as follows: active = hit-call score of the fitted dose curve at least 0.9, where 1 is the maximum; inactive = score below 0.9.
The categories you may choose from are y (active), n (inactive)

Record excerpt, results attached:
>>> group_label("COc1cccc(C=O)c1")
"n"
>>> group_label("CC(Br)C(=O)O (stereo not given)")
"n"
>>> group_label("COP(=O)(OC)O/C(=C\\Cl)c1cc(Cl)c(Cl)cc1Cl")
"y"

Query :: Per the records of this test, what outcome belongs to OCC(O)CCl (stereo not given) ?
Result :: n

Query :: Per the records of this test, what outcome belongs to CC(C)C1CCC(Cc2ccc(Cl)cc2)C1(O)Cn1cncn1 (stereo not given) ?
Result :: y

Query :: Per the records of this test, what outcome belongs to CC(C)(C)c1cc(O)ccc1O ?
Result :: n

Query :: Per the records of this test, what outcome belongs to BrCCBr ?
Result :: n

Query :: Per the records of this test, what outcome belongs to NC(=O)O ?
Result :: n

Query :: Per the records of this test, what outcome belongs to CCOC(=O)/C=C(C)/C=C/C[C@@H](C)CCCC(C)C ?
Result :: n

Query :: Per the records of this test, what outcome belongs to CCC[CH2][Sn]([Cl])([Cl])[Cl] ?
Result :: n

Query :: Per the records of this test, what outcome belongs to Nc1cccc2ccccc12 ?
Result :: n

Query :: Per the records of this test, what outcome belongs to O=c1[nH]c(=O)[nH]c(=O)[nH]1 ?
Result :: n

Query :: Per the records of this test, what outcome belongs to O=C(c1ccccc1)C(Cl)Cl ?
Result :: n

Query :: Per the records of this test, what outcome belongs to O=C(NCO)NCO ?
Result :: n

Query :: Per the records of this test, what outcome belongs to ClC1=C(Cl)[C@]2(Cl)[C@@H]3[C@@H](Cl)[C@@H](Cl)C[C@@H]3[C@@]1(Cl)C2(Cl)Cl ?
Result :: n

====

Test: Tanguay_ZF_120hpf_TR_legacy: (Legacy) Oregon State University Tanguay Lab 120 Hour Post-fertilization zebrafish Assay for Touch Response (AID 2283667)
Method: Tanguay_ZF_120hpf_legacy is a whole embryo, multiplexed endpoint assay using zebrafish larvae exposed for 120 hours post fertilization on a 96-well plate.Tanguay_ZF_120hpf_TR_legacy is one of one assay component(s) measured or calculated from the Tanguay_ZF_120hpf_legacy assay. […] This assay endpoint, Tanguay_ZF_120hpf_TR_legacy, was analyzed in the positive analysis fitting direction relative to DMSO as the negative control and baseline of activity. […]
Results filed as inconclusive are left out. Activity calls are given as the source filed them. The calls were made as follows: active = hit-call score of the fitted dose curve at least 0.9, where 1 is the maximum; inconclusive = response in the unintended direction; inactive = score below 0.9.
The categories you may choose from are t (active), f (inactive)

Record excerpt, results attached:
>>> group_label("Oc1cccc2cccnc12")
"f"
>>> group_label("O=C(O)C(F)(F)C(F)(F)C(F)(F)C(F)(F)C(F)(F)C(F)(F)F")
"f"
>>> group_label("CN(C)N=O")
"f"
>>> group_label("C=C(C)C(=O)[O][Sn]([CH2]CCC)([CH2]CCC)[CH2]CCC")
"f"
>>> group_label("COc1cc(-c2ccc(N)c(OC)c2)ccc1N")
"f"

Query :: Per the records of this test, what outcome belongs to CC(C)(C)CC(C)(C)c1ccc(O)cc1 ?
Result :: f

Query :: Per the records of this test, what outcome belongs to Cc1ccccc1N ?
Result :: f

Query :: Per the records of this test, what outcome belongs to CC(C)(c1ccccc1)c1ccc(O)c(C(C)(C)c2ccccc2)c1 ?
Result :: f

Query :: Per the records of this test, what outcome belongs to NC(=O)O ?
Result :: f

Query :: Per the records of this test, what outcome belongs to O=C(Nc1ccc2[nH]ccc2c1)c1cc2cc(F)ccc2n1Cc1cccc(F)c1 ?
Result :: f

Query :: Per the records of this test, what outcome belongs to CC(C)(C)c1cc(O)ccc1O ?
Result :: f

Query :: Per the records of this test, what outcome belongs to O=C(O)C(Cl)(Cl)Cl ?
Result :: f

Query :: Per the records of this test, what outcome belongs to C[C@]12CCC(=O)C[C@@H]1CC[C@@H]1[C@@H]2CC[C@]2(C)[C@@H](O)CC[C@@H]12 ?
Result :: f

Query :: Per the records of this test, what outcome belongs to CCC(C)(C)c1ccc(O)c(C(C)(C)CC)c1 ?
Result :: f

Query :: Per the records of this test, what outcome belongs to O=C1C2(Cl)C3(Cl)C4(Cl)C(Cl)(Cl)C5(Cl)C3(Cl)C1(Cl)C5(Cl)C24Cl (stereo not given) ?
Result :: t

====

Read-out: Intercellular Adhesion Molecule 1 (ICAM1), ICAM1 (gene 3383)
Assay: BSK_KF3CT_ICAM1: BioMAP Diversity Plus: KF3CT Assay for Intercellular Adhesion Molecule 1 (ICAM1) Biomarker Activity (AID 2283067)
Conditions: primary human keratinocytes with fibroblasts; actives raise or lower the signal
Active and inactive are the calls of the source. The calls were made as follows: active = hit-call score of the fitted dose curve at least 0.9, where 1 is the maximum; inactive = score below 0.9.
The categories you may choose from are active, inactive

Query :: Per the records of this test, what outcome belongs to O=Cc1cccc(Oc2ccccc2)c1 ?
Result :: inactive

Query :: Per the records of this test, what outcome belongs to O=[N+]([O-])c1ccc(O)c([N+](=O)[O-])c1 ?
Result :: inactive

Query :: Per the records of this test, what outcome belongs to COc1cc(OC)nc(NC(=O)NS(=O)(=O)c2ncccc2C(=O)N(C)C)n1 ?
Result :: inactive

Query :: Per the records of this test, what outcome belongs to O=S(=O)(c1ccc(Cl)cc1)c1ccc(Cl)cc1 ?
Result :: inactive

Query :: Per the records of this test, what outcome belongs to O=C(O)C(Cl)(Cl)Cl ?
Result :: inactive

====

Experiment: ATG_PXRE_CIS: Attagene CIS-FACTORIAL HepG2 Assay for human Pregnane X Receptor Element (PXRE) (AID 2282957)
Conditions: HepG2 Attagene CIS-FACTORIAL PXRE reporter, mRNA; actives raise or lower the signal
Calls of active or inactive are those of the source. How the source made its calls: active means hit-call score of the fitted dose curve at least 0.9, where 1 is the maximum; inactive means score below 0.9.
PROPERTY_LABEL: AC50

Consider the following illustrative entries.
>>> result("NC(=S)Nc1ccccc1")
"inactive"
>>> result("BrCCBr")
"inactive"
>>> result("c1cc[c]([Hg][c]2ccccc2)cc1")
"inactive"
>>> result("Cc1cc(=O)[nH]o1")
"42.8 µM (active)"
>>> result("CCOC(=O)CP(=O)(OCC)OCC")
"100 µM (active)"

AC50 reported for this compound CC1CN1P(=O)(N1CC1C)N1CC1C (configuration not stated) : inactive

AC50 reported for this compound Cl/C=C/Cl : inactive
